# system_under_test: T1, human ErbB3-Fc (R&D Systems) (human, UniProt P21860 20-643)
# T1 construct: Bought protein; also called wild-type ErbB3-Fc fusion; immobilized ErbB3; not shown: Fc part of the bought fusion protein; not described
# protocol_text: ELISA on ErbB3-Fc, soluble monovalent Sab (Example 42)
EC50 reference
Lab note: write values as number then unit, every time.

Query block: For the binder 3000-B09 (other) VH: EVQLLESGGGLVQPGGSLRLSCAASGFTFSDYWMHWVRQAPGKGLEWVALISSGGGYKYYADSVKGRFTISRDNSKNTLYLQMNSLRAEDTAVYYCAKDNEKNLYTWLDYWGQGTLVTVSS light: QPVLHQPPAMSSALGTTIRLTCTLRNDHDIGVYSVYWYQQRPGHPPRFLLRYFSQSDKSQGPQVPPRFSGSKDVARNRGYLSISELQPEDEAMYYCAMGARSSVTHVFGSGTQLTVLSQPKATPSVTLFPPSSEELQANKATLVCLMNDFYPGILTVTWKADGTPITQGVEMTTPSKQSNNKYAASSYLSLTPEQWRSRRSYSCQVMHEGSTVEKTVAPAECS , what EC50 is on record?
Result block: 0.07 nM

Query block: What about this binder? 3000-E07 (other, copies: 1 + 1) VH: EVQLLESGGGLVQPGGSLRLSCAASGFTFSNYWMHWVRQAPGKGLEWVALISGGGGNIYYADSVKGRFTISRDNSKNTLYLQMNSLRAEDTAVYYCAKDNEKNLYTWLDYWGQGTLVTVSS light: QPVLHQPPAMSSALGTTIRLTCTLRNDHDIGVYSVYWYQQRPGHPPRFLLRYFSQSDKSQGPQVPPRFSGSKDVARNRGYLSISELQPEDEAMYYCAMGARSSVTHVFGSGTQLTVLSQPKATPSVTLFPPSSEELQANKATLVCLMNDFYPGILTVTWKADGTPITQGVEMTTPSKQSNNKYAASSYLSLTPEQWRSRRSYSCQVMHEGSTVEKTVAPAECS
Result block: 0.121 nM

Query block: Thanks! And 3000-E01 (other) VH: EVQLLESGGGLVQPGGSLRLSCAASGFTFSSYWMHWVRQAPGKGLEWVALISNNGAYTYYADSVKGRFTISRDNSKNTLYLQMNSLRAEDTAVYYCAKDNEKNLYTWLDYWGQGTLVTVSS surrogate light: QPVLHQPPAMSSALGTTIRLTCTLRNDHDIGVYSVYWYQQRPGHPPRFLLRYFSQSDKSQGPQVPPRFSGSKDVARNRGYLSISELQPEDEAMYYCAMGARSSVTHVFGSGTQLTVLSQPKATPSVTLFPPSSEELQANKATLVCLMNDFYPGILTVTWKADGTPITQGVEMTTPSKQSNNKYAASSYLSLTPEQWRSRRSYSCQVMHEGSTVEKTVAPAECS ?
Result block: 0.105 nM
